Target: Calcium/calmodulin-dependent protein kinase type II subunit delta (Homo sapiens);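 further: percent inhibition values are means, taken from the GSK PKIS kinase profiling set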
Conditions: at 0.1 µM
Would you kindly list inhibition for each of these molecules?
Response body: numeric value in %, unit text excluded.

QUERY: Give me measured inhibition, please, for this molecule: Cc1nnc(-c2ccc(C)c(-c3ccc(C(=O)Nc4cccc(C#N)c4)cc3)c2)o1
RESULT: 1.1

QUERY: Give me measured inhibition, please, for this molecule: Fc1cccc(COc2ccc(Nc3ncnc4sc(-c5cccs5)cc34)cc2Cl)c1
RESULT: -0.89

QUERY: Give me measured inhibition, please, for this molecule: CCN1CCC(CC(=O)Nc2n[nH]c3nc(-c4cccs4)c(Br)cc23)CC1
RESULT: -1.29

QUERY: Give me measured inhibition, please, for this molecule: CC1=C(C(=O)Nc2ccc3[nH]ncc3c2)C(c2ccc3ccccc3c2)CC(=O)N1 (stereo not given)
RESULT: 0.33

QUERY: Give me measured inhibition, please, for this molecule: COc1ccc(-c2ccncc2)cc1C(N)=O
RESULT: 3.92

====

Molecular target: Serine/threonine-protein kinase SIK2 (Homo sapiens);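 further: mean inhibition of SNF1LK2 (QIK) kinase activity, from the GSK PKIS screening panel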
Settings: at 1 µM
Would you kindly list inhibition for each of these compounds?
Response body: numeric value in %, unit text excluded.

QUERY: Give me measured inhibition, please, for this compound: CCCN1CCC=C(c2ccc(Nc3nc(Nc4ccccc4C(N)=O)c4cc[nH]c4n3)c(C)c2)C1
RESULT: 8.52

QUERY: Give me measured inhibition, please, for this compound: NC(=O)c1cccc(Nc2nccc(Nc3cccc4[nH]ncc34)n2)c1
RESULT: 32.5

QUERY: Give me measured inhibition, please, for this compound: [O-][S+]1CCN(Cc2ccc(-c3ccc4ncnc(Nc5ccc(OCc6ccccc6)c(F)c5)c4c3)o2)CC1
RESULT: 5.38

QUERY: Give me measured inhibition, please, for this compound: CCN1CCC(CC(=O)Nc2n[nH]c3nc(-c4cccs4)c(Br)cc23)CC1
RESULT: -4.25

QUERY: Give me measured inhibition, please, for this compound: COc1ccc(-c2ccncc2)cc1C(N)=O
RESULT: 4.53

QUERY: Give me measured inhibition, please, for this compound: NS(=O)(=O)c1ccc(N/N=C2\C(=O)Nc3ccc(C(=O)NCCc4c[nH]cn4)cc32)cc1
RESULT: 16.9

QUERY: Give me measured inhibition, please, for this compound: CCn1c(-c2nonc2N)nc2cncc(C(=O)N3CCNCC3)c21
RESULT: 6.58

QUERY: Give me measured inhibition, please, for this compound: COc1ccc2cc(-c3c(-c4ccncc4)nc(-c4ccc([S+](C)[O-])cc4)n3C)ccc2c1 (stereo not given)
RESULT: 5.27

QUERY: Give me measured inhibition, please, for this compound: CS(=O)(=O)CCNCc1ccc(-c2ccc3ncnc(Nc4ccc(OCc5cccc(F)c5)c(C(F)(F)F)c4)c3c2)o1
RESULT: 10.8

QUERY: Give me measured inhibition, please, for this compound: COc1cc(C=NNc2ncnc3c2cnn3-c2ccccc2)ccc1O
RESULT: 20.4

QUERY: Give me measured inhibition, please, for this compound: COc1cc(C)c(NC(=O)CN(C)C)cc1Nc1nc(Nc2cccc(F)c2C(N)=O)c2cc[nH]c2n1
RESULT: -4.44

QUERY: Give me measured inhibition, please, for this compound: COc1cc2ncn(-c3cc(O[C@H](C)c4ccccc4Cl)c(C(N)=O)s3)c2cc1OC
RESULT: 24.8

QUERY: Give me measured inhibition, please, for this compound: COC(=O)Nc1nc2cc(Oc3cccc(NC(=O)Nc4cc(C(F)(F)F)ccc4F)c3)ccc2[nH]1
RESULT: 3.76

QUERY: Give me measured inhibition, please, for this compound: O=C1Nc2ccc(C(=O)c3ccco3)cc2C1=Cc1cc(Cl)c(O)c(Cl)c1
RESULT: 6.6

QUERY: Give me measured inhibition, please, for this compound: CCn1c(-c2nonc2N)nc2ccncc21
RESULT: 3.95

QUERY: Give me measured inhibition, please, for this compound: NC(=O)c1ccc(-c2nc(-c3ccccn3)c(-c3ccc4c(c3)OCO4)[nH]2)cc1
RESULT: 11.6

QUERY: Give me measured inhibition, please, for this compound: COc1cc2ncn(-c3cc(OCc4ccccc4Cl)c(C(N)=O)s3)c2cc1OC
RESULT: 26.6

QUERY: Give me measured inhibition, please, for this compound: Cc1ccc(C(=O)NC2CCCCC2)cc1-c1ccc(C(=O)NCC2CC2)cc1
RESULT: 1.96

QUERY: Give me measured inhibition, please, for this compound: Nc1nc(-c2ccccn2)c(-c2ccc3ncccc3n2)s1
RESULT: 4.74

QUERY: Give me measured inhibition, please, for this compound: Fc1cccc(COc2ccc(Nc3ncnc4cc(-c5ccc[nH]5)sc34)cc2Cl)c1
RESULT: 7.67

====

Target: Serine/threonine-protein kinase Nek2 (Homo sapiens);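 further: reported values are mean percent inhibition of NEK2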
Conditions: at 1 µM
The threshold is inclusive: inhibition of exactly 5% counts as label 1; values below receive label 0.

QUERY: Determine whether measured inhibition meets or exceeds 5% for CCc1cccc(NC(=O)Nc2ccc(Oc3ccc4nc(NC(=O)OC)[nH]c4c3)cc2)c1
RESULT: label 0

QUERY: Determine whether measured inhibition meets or exceeds 5% for O=C1NC(=O)C(N2CCc3ccccc32)=C1c1ccc(Cl)cc1
RESULT: label 1

QUERY: Determine whether measured inhibition meets or exceeds 5% for COc1cc2ncn(-c3cc(OCc4ccccc4C(F)(F)F)c(C(N)=O)s3)c2cc1OC
RESULT: label 1

QUERY: Determine whether measured inhibition meets or exceeds 5% for COc1cccc(-n2ncc3c(N/N=C/c4cccc(F)c4)ncnc32)c1
RESULT: label 0

QUERY: Determine whether measured inhibition meets or exceeds 5% for CCn1c(-c2nonc2N)nc2c(C#CC(C)(C)O)nc(OC[C@@H](N)c3ccccc3)cc21
RESULT: label 0

QUERY: Determine whether measured inhibition meets or exceeds 5% for NCc1ccc(-c2nc(-c3ccc(Cl)c(O)c3)c(-c3ccncc3)[nH]2)cc1
RESULT: label 0

QUERY: Determine whether measured inhibition meets or exceeds 5% for COc1ccc(-c2coc3ncnc(N)c23)cc1
RESULT: label 0

QUERY: Determine whether measured inhibition meets or exceeds 5% for CCn1c(-c2nonc2N)nc2cncc(C(=O)N3CC[C@H](N)C3)c21
RESULT: label 1

QUERY: Determine whether measured inhibition meets or exceeds 5% for CS(=O)(=O)CCNCc1ccc(-c2ccc3ncnc(Nc4ccc(OCc5cccc(F)c5)c(C(F)(F)F)c4)c3c2)o1
RESULT: label 0

QUERY: Determine whether measured inhibition meets or exceeds 5% for CS(=O)(=O)CCNCc1nc(-c2ccc3ncnc(Nc4ccc(F)c(Cl)c4)c3c2)cs1
RESULT: label 0

QUERY: Determine whether measured inhibition meets or exceeds 5% for Cc1ccc(C(=O)NC2CCCCC2)cc1-c1ccc(C(=O)NCC2CC2)cc1
RESULT: label 0

====

Target: 5'-AMP-activated protein kinase catalytic subunit alpha-1 (Homo sapiens);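 further: enzyme tested as the AMPK alpha1 beta1 gamma1 complex, values reported as mean percent inhibition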
Conditions: at 0.1 µM
Description: GSK_PKIS: AMPKA1 (A1B1G1) mean inhibition at 0.1 uM [Nanosyn]
Would you kindly list inhibition for each of these molecules?
Response body: numeric value in %, unit text excluded.

QUERY: Give me measured inhibition, please, for this molecule: Nc1ncnc2occ(-c3ccc(NC(=O)Nc4cc(C(F)(F)F)cc(C(F)(F)F)c4)cc3)c12
RESULT: 1.68

QUERY: Give me measured inhibition, please, for this molecule: CS(=O)(=O)Nc1ccc(N/C=C2\C(=O)Nc3ccccc32)cc1
RESULT: 0.57

QUERY: Give me measured inhibition, please, for this molecule: COc1cc2ncn(-c3cc(OCc4ccccc4Cl)c(C(N)=O)s3)c2cc1OC
RESULT: 1.36

QUERY: Give me measured inhibition, please, for this molecule: CS(=O)(=O)CCNCc1nc(-c2ccc3ncnc(Nc4ccc(F)c(Cl)c4)c3c2)cs1
RESULT: 2.39

QUERY: Give me measured inhibition, please, for this molecule: CCn1c(-c2nonc2N)nc2cncc(C(=O)N3CC[C@H](N)C3)c21
RESULT: 4.01

QUERY: Give me measured inhibition, please, for this molecule: CS(=O)(=O)CCNCc1ccc(-c2ccc3ncnc(Nc4ccc(OCc5cccc(F)c5)c(C(F)(F)F)c4)c3c2)o1
RESULT: 2.01

QUERY: Give me measured inhibition, please, for this molecule: Nc1ncnc2occ(-c3ccc(NC(=O)Nc4cccc(C(F)(F)F)c4)cc3)c12
RESULT: 1.82

QUERY: Give me measured inhibition, please, for this molecule: CCn1c(-c2nonc2N)nc2c(C#CC(C)(C)O)nc(CN3CCCC3)cc21
RESULT: 2.98

QUERY: Give me measured inhibition, please, for this molecule: COc1ccc(-c2coc3ncnc(N)c23)cc1
RESULT: 2.92

QUERY: Give me measured inhibition, please, for this molecule: CCN1CCC(CC(=O)Nc2n[nH]c3nc(-c4cccs4)c(Br)cc23)CC1
RESULT: -0.96

QUERY: Give me measured inhibition, please, for this molecule: Cn1cc(C=C2C(=O)Nc3cccnc32)c2ccccc21
RESULT: 5.84

QUERY: Give me measured inhibition, please, for this molecule: CN(C)c1cc2c(Nc3ccc4nc(Cc5ccccc5)[nH]c4c3)ncnc2cn1
RESULT: 4.31

QUERY: Give me measured inhibition, please, for this molecule: CNC(=O)c1cncc(/C=C/c2c(Cl)cccc2Cl)c1
RESULT: 2.85

QUERY: Give me measured inhibition, please, for this molecule: NC(=O)c1cccc(Nc2nccc(Nc3cccc4[nH]ncc34)n2)c1
RESULT: 3.35

QUERY: Give me measured inhibition, please, for this molecule: COc1ccc(COc2ccc(Cc3cnc(N)nc3N)cc2OC)cc1
RESULT: -0.17

QUERY: Give me measured inhibition, please, for this molecule: COc1ccc(-c2nn3ncccc3c2-c2ccnc(Nc3ccc(Cl)c(C(F)(F)F)c3)n2)cc1
RESULT: 2.31

QUERY: Give me measured inhibition, please, for this molecule: c1cnn2ncc(-c3ccnc(Nc4ccc5c(c4)OCCO5)n3)c2c1
RESULT: 4.61

QUERY: Give me measured inhibition, please, for this molecule: Cc1ccc(NC(=O)c2ccnc(N3CCCC3)c2)cc1-c1ccc(C(=O)NCC2CC2)cc1
RESULT: 6.18

QUERY: Give me measured inhibition, please, for this molecule: Nc1nc(-c2ccc3c(c2)C(=Cc2cc(Br)c(O)c(Br)c2)C(=O)N3)cs1
RESULT: -0.3

QUERY: Give me measured inhibition, please, for this molecule: O=C1NC(=O)C(N2CCc3ccccc32)=C1c1ccc(Cl)cc1
RESULT: 0.74

QUERY: Give me measured inhibition, please, for this molecule: Cc1nn(C)c2cc(N(C)c3ccnc(Nc4cccc(S(N)(=O)=O)c4)n3)ccc12
RESULT: 1.01

QUERY: Give me measured inhibition, please, for this molecule: COc1ccc2cc(-c3c(-c4ccncc4)nc(-c4ccc([S+](C)[O-])cc4)n3C)ccc2c1 (stereo not given)
RESULT: 3.11

QUERY: Give me measured inhibition, please, for this molecule: COC(=O)Nc1nc2cc(Oc3cccc(NC(=O)Nc4cc(C(F)(F)F)ccc4F)c3)ccc2[nH]1
RESULT: 1.64

QUERY: Give me measured inhibition, please, for this molecule: CC1=C(C(=O)Nc2ccc3[nH]ncc3c2)C(c2ccc(Cl)c(Cl)c2)CC(=O)N1 (stereo not given)
RESULT: 6.35

QUERY: Give me measured inhibition, please, for this molecule: CN1CCC(C(=O)Nc2n[nH]c3nnc(-c4ccccc4)cc23)CC1
RESULT: 5.95

QUERY: Give me measured inhibition, please, for this molecule: NS(=O)(=O)c1cccc(-c2ccc3c(NC(=O)C4CC4)n[nH]c3c2)c1
RESULT: -0.48

QUERY: Give me measured inhibition, please, for this molecule: CCc1cccc(NC(=O)Nc2ccc(Oc3ccc4nc(NC(=O)OC)[nH]c4c3)cc2)c1
RESULT: 1.46

QUERY: Give me measured inhibition, please, for this molecule: NC(=O)c1ccc(-c2nc(-c3ccccn3)c(-c3ccc4c(c3)OCO4)[nH]2)cc1
RESULT: 2.69

QUERY: Give me measured inhibition, please, for this molecule: COc1cc2ncn(-c3cc(O[C@@H](C)c4ccccc4Cl)c(C(N)=O)s3)c2cc1OC
RESULT: 3.57

QUERY: Give me measured inhibition, please, for this molecule: COc1cc2ncn(-c3cc(O[C@H](C)c4ccccc4Cl)c(C(N)=O)s3)c2cc1OC
RESULT: 6.49

QUERY: Give me measured inhibition, please, for this molecule: Cc1nnc(-c2ccc(C)c(-c3ccc(C(=O)Nc4cccc(C#N)c4)cc3)c2)o1
RESULT: 2.8

QUERY: Give me measured inhibition, please, for this molecule: COc1cccc(-n2ncc3c(N/N=C/c4cccc(F)c4)ncnc32)c1
RESULT: 2.52

QUERY: Give me measured inhibition, please, for this molecule: O=C1NC(=O)C(c2ccc(Cl)cc2)=C1Nc1ccc(Cl)c(C(=O)O)c1
RESULT: -0.6

QUERY: Give me measured inhibition, please, for this molecule: CS(=O)(=O)CCN(CC#N)Cc1ccc(-c2ccc3ncnc(Nc4ccc(OCc5cccc(F)c5)c(Cl)c4)c3c2)o1
RESULT: 3.45

QUERY: Give me measured inhibition, please, for this molecule: COC(=O)Nc1nc2cc(Oc3ccc(NC(=O)Nc4cccc(C(=O)O)c4)cc3)ccc2[nH]1
RESULT: 1.04

QUERY: Give me measured inhibition, please, for this molecule: COc1ccccc1Nc1ncc(-c2ccccc2)o1
RESULT: 1.74

QUERY: Give me measured inhibition, please, for this molecule: N#Cc1c(NC(=O)c2cccc3ccccc23)sc2c1CCCC2
RESULT: 1.14

QUERY: Give me measured inhibition, please, for this molecule: Fc1cccc(COc2ccc(Nc3ncnc4cc(-c5ccc[nH]5)sc34)cc2Cl)c1
RESULT: 1.8

QUERY: Give me measured inhibition, please, for this molecule: COc1cc(C=NNc2ncnc3c2cnn3-c2ccccc2)ccc1O
RESULT: 2.74

QUERY: Give me measured inhibition, please, for this molecule: CC(C)=Cc1cccc2c1/C(=N/Nc1ccc(S(N)(=O)=O)cc1)C(=O)N2
RESULT: 13.9

Data provenance: ChEMBL document CHEMBL1961873
